# System: TC-71 (Ewing's sarcoma)
# EXPERIMENT_DESCRIPTION: Cell growth/survival, TC-71 Ewing's sarcoma cells
# Format: cell-based
# CONDITION_CONTEXT: Homo sapiens, TP53 mut.
OUTCOME_MEASURE: IC50 (µM)
Give just the number in µM; leave the unit off.

// lookup IC50 for C=C(C)[C@@H]1CC[C@]2(C(=O)OCC(N)(CO)CO)CC[C@]3(C)[C@H](CC[C@@H]4[C@@]5(C)CC[C@H](OC(C)=O)C(C)(C)[C@@H]5CC[C@]43C)[C@@H]12
5.5

###

# EXPERIMENT_DESCRIPTION: Solubility in ethanol, DMSO and ethanol-Tween 80
# Assay type: physicochemical
# CONDITION_CONTEXT: organic solvent or mixture, Solubility in ethanol
OUTCOME_MEASURE: solubility

C=C(C)[C@@H]1CC[C@]2(C(=O)O)CC[C@]3(C)[C@H](CC[C@@H]4[C@@]5(C)CC[C@H](O)C(C)(C)[C@@H]5CC[C@]43C)[C@@H]12 [betulinic acid, reference compound]; < 1 mg/mL

Could you now look at the following molecule, please?
// lookup solubility for C=C(C)[C@@H]1CC[C@]2(C(=O)OCC(N)(CO)CO)CC[C@]3(C)[C@H](CC[C@@H]4[C@@]5(C)CC[C@H](OC(C)=O)C(C)(C)[C@@H]5CC[C@]43C)[C@@H]12 [NVX-207]
≥ 300 mg/mL
